experiment: Cytotoxicity against human HBI10A cells after 20 hrs by MTS assay; type: cell-based
Exercise: for every item that follows, state its recorded CC50 at 20 h.

Here are 4 molecules. What values of CC50 at 20 h were reported for them?
1. CNC1=C(C(=O)OC)C(C)OC1=O (stereo not drawn)
2. CNC1=C(C(C)=O)C(C)OC1=O (stereo not drawn)
3. CNC1=C(C(=O)Nc2ccccc2)C(C)OC1=O (stereo not drawn)
4. CCOC(=O)C1=C(NC)C(=O)OC1C(=O)OCC (stereo not drawn)

1. > 1000 µM
2. 819 µM
3. > 1000 µM
4. > 1000 µM

###

experiment: Cytotoxicity against human HBI10A cells after 20 hrs by MTS assay; type: cell-based
Exercise: for every item that follows, state its recorded CC50 at 20 h.

Example entries begin here.
>>> reported_result("CNC1=C(c2ccccc2)C(c2ccccc2)OC1=O (centres undefined)")
"28 µM"
>>> reported_result("COC(=O)C1=C(NCc2ccccc2)C(=O)OC1C (centres undefined)")
"> 1000 µM"
>>> reported_result("CNC1=C(C(C)=O)COC1=O")
"> 1000 µM"

# ---- query compound ----
Notebook: CNC1=C(C(=O)OC)C(C)OC1O (centres undefined) , CC50 at 20 h read as > 1000 µM
